Biological target: T1, TRF1_(TRFH) (residues 58-268) (UniProt P54274 58-268)
T1 sequence (looked up): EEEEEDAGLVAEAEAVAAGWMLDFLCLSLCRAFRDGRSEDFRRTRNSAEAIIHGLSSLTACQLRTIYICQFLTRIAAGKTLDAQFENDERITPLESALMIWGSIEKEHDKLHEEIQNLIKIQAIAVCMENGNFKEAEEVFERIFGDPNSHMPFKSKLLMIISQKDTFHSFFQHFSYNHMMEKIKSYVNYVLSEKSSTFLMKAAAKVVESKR
Test: fluorescence polarisation
pKd: −log10 of the molar value. Where no end group is shown, it is not given here.
PROPERTY NAME: pKd

BINDER | QUALIFIER | DATA VALUE
MPIFWKAHRMSKMGTG-NH2 (designed binder, also: 7-hydroxycoumarin-3-carboxylic acid label, position not given here) [Design 3] | = | 4.76
MPIFWKFHRMSKMGTG-NH2 (designed binder, also: 7-hydroxycoumarin-3-carboxylic acid label, position not given here) [Design 1] | = | 4.63
MPCFYLAHEL-NH2 (also: 7-hydroxycoumarin-3-carboxylic acid label, position not given here) [Wild-Type peptide (Fbx4 residues 339-348)] | = | 4.38
SMTWRGKPAHMIFGKM-NH2 (also: 7-hydroxycoumarin-3-carboxylic acid label, position not given here) [Control 1] | < | 3.60
MPIAWKFHRMSKMGTG-NH2 (designed binder, also: 7-hydroxycoumarin-3-carboxylic acid label, position not given here) [Design 2] | = | 4.32
KKMDVCGGLSD-NH2 (also: 7-hydroxycoumarin-3-carboxylic acid label, position not given here) [Control 2] | < | 2.00

Provenance of the data: paper PMC4028150
